assay: Terminal half life in Beagle dog at 1 mg/kg, iv or 5 mg/kg, po by HPLC/MS analysis; format: ADME, organism-based, Canis lupus familiaris; details: in vivo, read-out: beta t1/2 (converted)
recorded-endpoint: half-life (h)
Quick note: give the figure in h, leave out the unit.

CC(C)[C@@H]1OC(=O)C2(/C=C/c3ccc4ccc(nc4c3)[C@@H](C)NC(=O)[C@@H]3CCCN(N3)C(=O)[C@H](C)NC1=O)COCOC2 ... 25

Query compound follows.
Query :: Look up and report measured half-life for this entry: CC(C)[C@@H]1OC(=O)C(C)(C)/C=C/c2ccc3ccc(nc3c2)[C@@H](C)NC(=O)[C@@H]2CCCN(N2)C(=O)[C@H](C)NC1=O
Result :: 10

* * *

experiment: Terminal half life in Sprague-Dawley rat at 1 mg/kg, iv or 5 mg/kg, po by HPLC/MS analysis; format: ADME, organism-based; conditions: in vivo, read-out: beta t1/2 (converted)
recorded-endpoint: half-life (h)
Quick note: give the figure in h, leave out the unit.

Query :: Look up and report measured half-life for this entry: CC(C)[C@@H]1OC(=O)C(C)(C)/C=C/c2ccc3ccc(nc3c2)[C@@H](C)NC(=O)[C@@H]2CCCN(N2)C(=O)[C@H](C)NC1=O
Result :: 3.9

* * *

test: Volume of distribution at steady state in Sprague-Dawley rat at 10 mg/kg, iv or 10 mg/kg, po by HPLC/MS analysis; format: ADME, organism-based; conditions: in vivo, read-out: Vdss
recorded-endpoint: Vd

Query :: Look up and report measured Vd for this entry: CC(C)[C@@H]1OC(=O)C2(/C=C/c3ccc4ccc(nc4c3)[C@@H](C)NC(=O)[C@@H]3CCCN(N3)C(=O)[C@H](C)NC1=O)COCOC2
Result :: 12 L/kg

* * *

experiment: Apparent permeability across apical to basolateral side in human Caco2 cells measured at 60 to 120 mins by LC/MS/MS analysis; format: ADME, cell-based; details: Caco-2, read-out: permeability
# Papp A→B values compiled below
Quick note: give the figure in ×10⁻⁶ cm/s, leave out the unit.

CC(C)[C@@H]1NC(=O)C(C)(C)/C=C/c2cc3cc(ccc3cn2)[C@@H](C)OC(=O)[C@@H]2CCCN(N2)C(=O)[C@H](C)NC1=O ... 2.3
CC(C)[C@@H]1OC(=O)C2(/C=C/c3ccc4ccc(nc4c3)[C@@H](C)NC(=O)[C@@H]3CCCN(N3)C(=O)[C@H](C)NC1=O)CCC(O)CC2 (stereo in doubt; 47) ... 0.61
CO[C@@H]1/C=C/c2cc3cc(ccc3cn2)[C@@H](C)OC(=O)[C@@H]2CCCN(N2)C(=O)[C@H](C)NC(=O)[C@H](C(C)C)NC(=O)[C@@H]1C ... 4.4

Query :: Look up and report measured Papp A→B for this entry: CC(C)[C@@H]1OC(=O)C2(/C=C/c3ccc4ccc(nc4c3)[C@@H](C)NC(=O)[C@@H]3CCCN(N3)C(=O)[C@H](C)NC1=O)COCOC2
Result :: 1.5

Query :: Look up and report measured Papp A→B for this entry: CC(C)[C@@H]1NC(=O)CC/C=C/c2cc3cc(ccc3cn2)[C@@H](C)OC(=O)[C@@H]2CCCN(N2)C(=O)[C@H](C)NC1=O
Result :: 0.33

Query :: Look up and report measured Papp A→B for this entry: CO[C@H]1C(=O)N[C@@H](C(C)C)C(=O)N[C@@H](C)C(=O)N2CCC[C@H](N2)C(=O)O[C@H](C)c2cccc(c2)/C=C/CC[C@H]1C
Result :: 12
